The reader will find reported ED20 values listed item by item below.
System: narcotized rats
Experiment: Anti-hypertensive effect on narcotized rats
Format: in vivo, male Sprague-Dawley rats
Settings: Rattus norvegicus, ip; rats, urethane narcosis, intraperitoneal; dose at which the blood pressure falls by 20%; read-out: Lowering of blood pressure ED 20%
// units = mg/kg; emit number, no label

Here is how some compounds turned out for ED20.
O=C1CCC(c2ccc(NC(=O)CCCl)cc2)=NN1
10
CC1CC(=O)NN=C1c1ccc(NC(=O)C(C)(C)CBr)cc1 (stereo not shown)
0.34
CCC(Br)C(=O)Nc1ccc(C2=NNC(=O)CC2C)cc1 (stereo not shown)
1.49
CC1CC(=O)NN=C1c1ccc(NC(=O)CCCl)cc1 (stereo not shown)
0.045
CC1CC(=O)NN=C1c1ccc(NC(=O)C(C)(C)CCl)cc1 (stereo not shown)
0.61
CC1CC(=O)NN=C1c1ccc(NC(=O)CCl)cc1 (stereo not shown)
0.15

Request: Query (compound): CC(Br)C(=O)Nc1ccc(C2=NNC(=O)CC2C)cc1 (stereo not shown) ; field requested: ED20
Response: 0.4

Request: Query (compound): CC1CC(=O)NN=C1c1ccc(NC(=O)C(C)(C)Br)cc1 (stereo not shown) ; field requested: ED20
Response: 2.93

Request: Query (compound): `O=C1CCC(c2ccc(NC(=O)CCl)cc2)=NN1` ; field requested: ED20
Response: 0.37

Request: Query (compound): CC1CC(=O)NN=C1c1ccc(NC(=O)CCCCl)cc1 (stereo not shown) ; field requested: ED20
Response: 0.32
